List of IC50 values.
# Assay System: wildtype Kras / hSOS1 (Homo sapiens, UniProt P01116)
# Construct: made in house; host or cells: E. coli BL21 (DE3)
# Sequence (P01116 1-188 isoform P01116-2): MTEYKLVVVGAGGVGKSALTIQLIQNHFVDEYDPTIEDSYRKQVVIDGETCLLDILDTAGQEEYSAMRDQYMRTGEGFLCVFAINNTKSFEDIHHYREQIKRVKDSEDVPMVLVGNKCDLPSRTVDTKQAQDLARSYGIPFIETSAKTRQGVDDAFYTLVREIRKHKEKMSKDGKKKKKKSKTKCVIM
# Assay Remarks: HTRF assay, wildtype Kras / SOS1 interaction
# Type: binding
# Measurement Conditions: compound nos. 401-703; read-out: IC50 against wildtype Kras

Molecule	IC50
Nc1nc2c(-c3c(Cl)cc4c(N5C[C@H]6CC[C@@H](C5)C6(F)F)nc(OC[C@@]56CCCN5C[C@H](F)C6)nc4c3F)ccc(F)c2s1 [Compound 655]	> 500 nM
Nc1nc2c(-c3ccc4c(N5CC6CCC(C5)N6)nc(OC[C@@]56CCCN5C[C@H](F)C6)nc4c3F)ccc(F)c2s1 [Compound 612]	> 500 nM
Nc1nc2c(-c3cc4ncnc(N5CC6CCC(C5)N6)c4cc3Cl)ccc(F)c2s1 [Compound 635]	> 500 nM
N#Cc1c(N)sc2c(F)ccc(-c3c(Cl)cc4c(N5CCCS(=O)(=O)CC5)nc(OC[C@@]56CCCN5C[C@H](F)C6)nc4c3F)c12 [Compound 574]	> 500 nM
Nc1ccc(-c2ccccc2-c2c(Cl)cc3c(N4CCCCCC4)nc(OCC45CCCN4CCC5)nc3c2F)cc1 [Compound 450]	< 500 nM
Nc1nc2c(-c3c(Cl)cc4c(N5CC6CCNCC6C5)nc(OC[C@@]56CCCN5C[C@H](F)C6)nc4c3F)ccc(F)c2s1 (stereo partly drawn) [Compound 566]	> 500 nM

====

List of pIC50 values.
# Assay System: GST-tagged K-Ras mutant / His-tagged hSOS1 (Homo sapiens, UniProt P01116)
# Sequence (P01116 whole entry G12D, form open): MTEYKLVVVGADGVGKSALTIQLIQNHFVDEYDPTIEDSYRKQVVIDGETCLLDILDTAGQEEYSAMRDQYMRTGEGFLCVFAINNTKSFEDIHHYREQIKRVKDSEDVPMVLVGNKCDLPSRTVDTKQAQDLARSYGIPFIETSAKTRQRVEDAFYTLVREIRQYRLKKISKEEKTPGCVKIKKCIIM
# Assay Remarks: HTRF assay, K-Ras mutant / SOS1 interaction
# Format: binding
# Measurement Conditions: compound nos. 401-703; read-out: IC50 against mutant Kras
pIC50: −log10 of the molar value.

Compound	Assay System	pIC50
N#Cc1c(N)sc2cc(F)cc(-c3c(Cl)cc4c(N5CC6CCC(C5)N6)nc(OC[C@@]56CCCN5C[C@H](F)C6)nc4c3F)c12 [Compound 476]	GST-tagged K-Ras mutant / His-tagged hSOS1 (Homo sapiens, UniProt P01116)	> 6.30
CN1CCC[C@H]1COc1nc(N2CCCC(n3ccnc3)CC2)c2cc(Cl)c(-c3cccc4sc(N)nc34)c(F)c2n1 (stereo partly drawn) [Compound 651]	GST-tagged K-Ras mutant / His-tagged hSOS1 (Homo sapiens, UniProt P01116)	> 6.30
N#CN1CCN(c2nc(OCC34CCCN3CCC4)nc3c(F)c(-c4ccc(F)c5sc(N)nc45)c(Cl)cc23)CC(F)(F)C1 [Compound 551]	GST-tagged K-Ras mutant / His-tagged hSOS1 (Homo sapiens, UniProt P01116)	> 6.30
CN1CCC[C@H]1COc1nc2c(c(N3CCNCC(F)(F)C3)n1)CCC(c1cccc3sc(N)nc13)C2 (stereo partly drawn) [Compound 432]	GST-tagged K-Ras mutant / His-tagged hSOS1 (Homo sapiens, UniProt P01116)	< 6.30
Nc1nc2c(-c3c(Cl)cc4c(N5CC6CNC(C6)C5)nc(OC[C@@]56CCCN5C[C@H](F)C6)nc4c3F)ccc(F)c2s1 (stereo partly drawn) [Compound 556]	GST-tagged K-Ras mutant / His-tagged hSOS1 (Homo sapiens, UniProt P01116)	> 6.30
CNCCCN1CCCN(c2nc(OCC34CCCN3CCC4)nc3c(F)c(-c4ccc(F)c5sc(N)nc45)c(Cl)cc23)CC1 [Compound 640]	GST-tagged K-Ras mutant / His-tagged hSOS1 (Homo sapiens, UniProt P01116)	> 6.30
